B1: tRNA (parent)
chain: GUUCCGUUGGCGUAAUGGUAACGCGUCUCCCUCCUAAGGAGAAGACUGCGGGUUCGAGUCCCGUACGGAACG

# Variants of: B1
# assay_overview: yeast fitness relative to wild type (ratio to wild type); higher = fitter; tRNA-Arg(CCU), competitive growth, 37 C, YPD
Variants at the floor of the assay were thinned out.
observed_property: yeast fitness
// no unit string in output, number only

Solved cases below.
INSERT INTO results (variant_annotation, numeric_result) VALUES
  ('G9C C61A', 0.531),
  ('C11U A37G G48A', 0.597),
  ('C11A A36G C49G A70G', 0.584),
  ('C11G G67A', 0.635),
  ('C49U G50C', 0.815);

Data request: Indicate the recorded yeast fitness value for this variant: U8C A15G U16A C46U U54C
Data returned: 0.601

Data request: Indicate the recorded yeast fitness value for this variant: G6A C24U C46U
Data returned: 0.764

Data request: Indicate the recorded yeast fitness value for this variant: U35A A69C A70C
Data returned: 0.535

Data request: Indicate the recorded yeast fitness value for this variant: G44C A69U
Data returned: 0.895

Data request: Indicate the recorded yeast fitness value for this variant: C24A U64C
Data returned: 0.706

Data request: Indicate the recorded yeast fitness value for this variant: U3C U59A C61G
Data returned: 0.587

Data request: Indicate the recorded yeast fitness value for this variant: U32A C33U
Data returned: 0.597
